- Tested on: Klebsiella pneumoniae
- Protocol Notes: Antibacterial activity against Klebsiella pneumoniae ATCC 13833 incubated for 18 to 24 hrs by CLSI based microdilution broth method
- Format: functional
- Assay Conditions: Klebsiella pneumoniae, ATCC 13833; time 18-24 hrs; read-out: MIC
Readout Name: MIC (µg/mL)

# example entries with known answers
1) N=C(N)NCCCCCCCN(CCCCCCCNC(=N)NCC1CC1)C(=O)N(CCCCCCCNC(=N)N)CCCCCCCNC(=N)NCC1CC1.O=C(O)C(F)(F)F | 8
2) N=C(N)NCCCCCCCCN(CCCCCCNC(=N)NCC1CC1)C(=O)N(CCCCCCCCNC(=N)N)CCCCCCNC(=N)NCC1CC1.O=C(O)C(F)(F)F | 4
3) C/C=C/CNC(=N)NCCCCCCCCN(CCCCCCCCNC(=N)N)C(=O)N(CCCCCCCCNC(=N)N)CCCCCCCCNC(=N)NC/C=C/C.O=C(O)C(F)(F)F | 2

(1) CCCCNC(=N)NCCCCCCCCN(CCCCCCCCNC(=N)N)C(=O)N(CCCCCCCCNC(=N)N)CCCCCCCCNC(=N)NCCCC.O=C(O)C(F)(F)F
(2) CCCNC(=N)NCCCCCCCCN(CCCCCCCCNC(=N)N)C(=O)N(CCCCCCCCNC(=N)N)CCCCCCCCNC(=N)NCCC.O=C(O)C(F)(F)F
(3) N=C(N)NCCCCCCCCN(CCCCCCCCNC(=N)NCCC12CC3CC(CC(C3)C1)C2)C(=O)N(CCCCCCCCNC(=N)N)CCCCCCCCNC(=N)NCCC12CC3CC(CC(C3)C1)C2.O=C(O)C(F)(F)F
Q. Hey, quick one: sort these by MIC, largest value first please. Form entry: labels listed in requested order.
A. 3, 1, 2
